Measured values drawn from patent US20240016781A1 for this set.

# ASSAY COMMENT: PK of voruciclib, 2 weeks of daily dosing followed by 1 week without dosing in a 21-day cycle (Table 3)
# Format: in vivo, human
# SETUP CONDITIONS: human, plasma, oral, 600 mg, Day 13, 2 weeks daily dosing/1 week off, mean; read-out: Vz/F
MEASURED PROPERTY: Vd/F (L)
Respond with the bare value in L.

Query: What value of Vd/F has been recorded for this entry: "CN1CC[C@@H](c2c(O)cc(O)c3c(=O)cc(-c4ccc(C(F)(F)F)cc4Cl)oc23)[C@@H]1CO"
Result: 394

###

# ASSAY COMMENT: PK of voruciclib, daily dosing continuously (Table 4)
# Assay type: in vivo
# SETUP CONDITIONS: human, plasma, oral, 75 mg, Day 15, daily dosing continuously, mean; read-out: AUC0-t
MEASURED PROPERTY: AUC(0-t) (ng·h/mL)
Express your answer in ng·h/mL, writing the number without its unit.

Query: Which AUC(0-t) reading was recorded for the compound "CN1CC[C@@H](c2c(O)cc(O)c3c(=O)cc(-c4ccc(C(F)(F)F)cc4Cl)oc23)[C@@H]1CO" ?
Result: 5570
